# Test system: panel of 24 KRAS-mutant and wild-type lung cancer cell lines
# protocol-notes: Cell viability screen across a panel of 24 lung cancer cell lines
# Format: cell-based
# condition: 0.5 and 2.5 μM
measure: effect on cellular viability across lung cancer cell line panel

[
  {
    "compound": "C[C@@H](Oc1cc(-c2cnn(C3CCNCC3)c2)cnc1N)c1c(Cl)ccc(F)c1Cl",
    "observed-value": "no significant effects"
  },
  {
    "compound": "OCCn1cc(-c2cnc3nnn(Cc4ccc5ncccc5c4)c3n2)cn1",
    "observed-value": "no significant effects"
  },
  {
    "compound": "COc1cc2nccc(Oc3ccc(NC(=O)C4(C(=O)Nc5ccc(F)cc5)CC4)cc3)c2cc1OC [cabozantinib]",
    "observed-value": "no significant effects"
  }
]
